TESTED ON: T1, cSNK:BSA conjugate (bovine, head-to-tail cyclized; conjugated to BSA carrier)
T1 construct: also called BSA-cSNK
T1 sequence (P02769 25-607 limits assumed): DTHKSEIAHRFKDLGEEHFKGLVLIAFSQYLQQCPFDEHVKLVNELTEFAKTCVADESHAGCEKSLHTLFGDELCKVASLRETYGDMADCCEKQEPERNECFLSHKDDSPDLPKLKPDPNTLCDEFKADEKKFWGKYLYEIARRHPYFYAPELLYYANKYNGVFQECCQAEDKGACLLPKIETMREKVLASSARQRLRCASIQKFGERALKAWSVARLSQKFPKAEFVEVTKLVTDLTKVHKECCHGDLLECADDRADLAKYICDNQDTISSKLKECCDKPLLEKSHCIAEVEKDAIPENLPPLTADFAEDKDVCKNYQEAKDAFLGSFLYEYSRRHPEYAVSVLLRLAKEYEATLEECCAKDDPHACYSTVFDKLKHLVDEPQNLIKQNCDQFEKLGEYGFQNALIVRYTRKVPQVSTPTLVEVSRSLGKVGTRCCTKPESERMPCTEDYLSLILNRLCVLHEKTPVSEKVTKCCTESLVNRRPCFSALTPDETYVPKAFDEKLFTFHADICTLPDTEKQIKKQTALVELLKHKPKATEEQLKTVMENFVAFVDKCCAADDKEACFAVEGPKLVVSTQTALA
ASSAY: BLI (Octet), KD1
pKd: −log10 of the molar value.
Class yes (1): pKd at least 10. Class no (0): pKd below 10.

BINDER	ASSIGNED LABEL
5E3KCDR3-N93Q + 5E3HCDR3-Y212F (antibody, IgG1, V domains shown, double combination in hu5E3 IgG1) VH: QVQLQQSGPEVKKPGASVKISCKASGYIFTSYYIQWVIHAPGQGLEWIGWIYPGNVNTKYNEKFKGKATLTADKSSSTAYMELSSLTSEDTAVYFCARMDYEAHFWGQGTTVTVSS VL: DIQMTQSPSSLSASVGDRVTITCRASQEISGYLTWLQQKPEGAIKRLIYAASTLDSGVPKRFSGSRSGSDYSLTISSLQPEDFATYNCLQYAQYPRTFGGGTKLEIK	yes (1)

QUERY: Record 5E3KCDR3-A116Y (antibody, IgG1, V domains shown, hu5E3 IgG1 vector mutant) VH: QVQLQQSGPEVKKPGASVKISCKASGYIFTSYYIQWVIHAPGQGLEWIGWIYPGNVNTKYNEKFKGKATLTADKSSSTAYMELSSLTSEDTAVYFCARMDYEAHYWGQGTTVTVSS VL: DIQMTQSPSSLSASVGDRVTITCRASQEISGYLTWLQQKPEGAIKRLIYAASTLDSGVPKRFSGSRSGSDYSLTISSLQPEDFATYNCLQYYNYPRTFGGGTKLEIK ; criterion: pKd no lower than 10. Met?
RESULT: yes (1)

QUERY: Record 5E3KCDR3-L89I (antibody, IgG1, V domains shown, hu5E3 IgG1 vector mutant) VH: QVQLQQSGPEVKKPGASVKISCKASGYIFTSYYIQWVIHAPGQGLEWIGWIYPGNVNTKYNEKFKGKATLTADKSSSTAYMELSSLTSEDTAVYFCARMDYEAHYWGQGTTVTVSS VL: DIQMTQSPSSLSASVGDRVTITCRASQEISGYLTWLQQKPEGAIKRLIYAASTLDSGVPKRFSGSRSGSDYSLTISSLQPEDFATYNCIQYANYPRTFGGGTKLEIK ; criterion: pKd no lower than 10. Met?
RESULT: no (0)

QUERY: Record 5E3KCDR2-A74D (antibody, IgG1, V domains shown, hu5E3 IgG1 vector mutant; also called 5E3-A74D-AFF) VH: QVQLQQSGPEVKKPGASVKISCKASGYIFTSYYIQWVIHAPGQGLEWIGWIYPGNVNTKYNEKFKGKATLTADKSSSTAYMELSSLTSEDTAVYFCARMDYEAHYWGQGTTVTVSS VL: DIQMTQSPSSLSASVGDRVTITCRASQEISGYLTWLQQKPEGAIKRLIYDASTLDSGVPKRFSGSRSGSDYSLTISSLQPEDFATYNCLQYANYPRTFGGGTKLEIK ; criterion: pKd no lower than 10. Met?
RESULT: no (0)

QUERY: Record 5E3HCDR3-Y212F (antibody, IgG1, V domains shown, hu5E3 IgG1 vector mutant) VH: QVQLQQSGPEVKKPGASVKISCKASGYIFTSYYIQWVIHAPGQGLEWIGWIYPGNVNTKYNEKFKGKATLTADKSSSTAYMELSSLTSEDTAVYFCARMDYEAHFWGQGTTVTVSS VL: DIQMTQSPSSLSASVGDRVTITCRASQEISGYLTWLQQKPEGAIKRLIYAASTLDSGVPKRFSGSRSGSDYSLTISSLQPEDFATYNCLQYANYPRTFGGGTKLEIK ; criterion: pKd no lower than 10. Met?
RESULT: no (0)

QUERY: Record 5E3KCDR3-N93D (antibody, IgG1, V domains shown, hu5E3 IgG1 vector mutant; same change as 5E3KCDR3-N117D) VH: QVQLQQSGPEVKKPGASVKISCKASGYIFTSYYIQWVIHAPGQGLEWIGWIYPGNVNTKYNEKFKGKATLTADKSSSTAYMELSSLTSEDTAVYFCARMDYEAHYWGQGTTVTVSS VL: DIQMTQSPSSLSASVGDRVTITCRASQEISGYLTWLQQKPEGAIKRLIYAASTLDSGVPKRFSGSRSGSDYSLTISSLQPEDFATYNCLQYADYPRTFGGGTKLEIK ; criterion: pKd no lower than 10. Met?
RESULT: no (0)

QUERY: Record 5E3KCDR3-N93D + 5E3HCDR3-Y212F (antibody, IgG1, V domains shown, double combination in hu5E3 IgG1) VH: QVQLQQSGPEVKKPGASVKISCKASGYIFTSYYIQWVIHAPGQGLEWIGWIYPGNVNTKYNEKFKGKATLTADKSSSTAYMELSSLTSEDTAVYFCARMDYEAHFWGQGTTVTVSS VL: DIQMTQSPSSLSASVGDRVTITCRASQEISGYLTWLQQKPEGAIKRLIYAASTLDSGVPKRFSGSRSGSDYSLTISSLQPEDFATYNCLQYADYPRTFGGGTKLEIK ; criterion: pKd no lower than 10. Met?
RESULT: yes (1)

QUERY: Record 5E3HCDR2-V209Y (antibody, IgG1, V domains shown, hu5E3 IgG1 vector mutant) VH: QVQLQQSGPEVKKPGASVKISCKASGYIFTSYYIQWVIHAPGQGLEWIGWIYPGNYNTKYNEKFKGKATLTADKSSSTAYMELSSLTSEDTAVYFCARMDYEAHYWGQGTTVTVSS VL: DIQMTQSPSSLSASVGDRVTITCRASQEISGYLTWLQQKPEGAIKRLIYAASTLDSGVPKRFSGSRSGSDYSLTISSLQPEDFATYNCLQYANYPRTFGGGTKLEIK ; criterion: pKd no lower than 10. Met?
RESULT: yes (1)

QUERY: Record 5E3KCDR2-S80Y (antibody, IgG1, V domains shown, hu5E3 IgG1 vector mutant) VH: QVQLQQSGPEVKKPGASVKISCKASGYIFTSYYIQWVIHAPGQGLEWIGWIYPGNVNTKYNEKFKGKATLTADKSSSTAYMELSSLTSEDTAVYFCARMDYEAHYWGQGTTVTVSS VL: DIQMTQSPSSLSASVGDRVTITCRASQEISGYLTWLQQKPEGAIKRLIYAASTLDYGVPKRFSGSRSGSDYSLTISSLQPEDFATYNCLQYANYPRTFGGGTKLEIK ; criterion: pKd no lower than 10. Met?
RESULT: yes (1)

QUERY: Record 5E3KCDR2-G81D (antibody, IgG1, V domains shown, hu5E3 IgG1 vector mutant; also called 5E3-G81D-AFF) VH: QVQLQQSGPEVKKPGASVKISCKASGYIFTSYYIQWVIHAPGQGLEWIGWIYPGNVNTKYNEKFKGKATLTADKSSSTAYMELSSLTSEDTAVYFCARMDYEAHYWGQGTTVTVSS VL: DIQMTQSPSSLSASVGDRVTITCRASQEISGYLTWLQQKPEGAIKRLIYAASTLDSDVPKRFSGSRSGSDYSLTISSLQPEDFATYNCLQYANYPRTFGGGTKLEIK ; criterion: pKd no lower than 10. Met?
RESULT: yes (1)
